- Tested on: E. coli B123
- procedure summary: MIC by agar dilution (CLSI) against highly resistant ESBL strain
- Format: cell-based
- test conditions: Escherichia coli, B123, E. coli B123; with Tazobactam 4 mcg; read-out: MIC
Below is a list of entries, each paired with its recorded MIC value.
# unit: µg/mL | format: bare number

• CO/N=C(\C(=O)N[C@@H]1C(=O)N2C(C(=O)[O-])=C(C[n+]3cccc4c3CCC4)CS[C@H]12)c1csc(N)n1 = 4

For the next question, use this molecule.
Given the entry CO/N=C(\C(=O)N[C@@H]1C(=O)N2C(C(=O)[O-])=C(C[N+]3(C)CCCC3)CS[C@H]12)c1csc(N)n1 [Cefepime] , report its measured MIC.
4

---

Below is a list of entries, each paired with its recorded MIC value.
- Test system: K. pneumoniae M150
- procedure summary: MIC by agar dilution (CLSI) against highly resistant ESBL strain
- Format: cell-based
- test conditions: Klebsiella pneumoniae, M150, K. pneumoniae M150; with Tazobactam 8 mcg; read-out: MIC

Example results:
* CCN1CCN(C(=O)N[C@@H](C(=O)N[C@@H]2C(=O)N3[C@@H]2SC(C)(C)[C@@H]3C(=O)O)c2ccccc2)C(=O)C1=O [Piperacillin] | > 64 µg/mL
* CC1(C)S[C@@H]2[C@H](NC(=O)[C@H](C(=O)O)c3ccsc3)C(=O)N2[C@H]1C(=O)O [Ticarcillin] | > 64 µg/mL
* CC1(C)S[C@@H]2[C@H](NC(=O)[C@H](N)c3ccc(O)cc3)C(=O)N2[C@H]1C(=O)O [Amoxicillin] | > 64 µg/mL
* CC1(C)S[C@@H]2[C@H](NC(=O)[C@H](N)c3ccccc3)C(=O)N2[C@H]1C(=O)O [Ampicillin] | > 64 µg/mL

Given the entry CO/N=C(\C(=O)N[C@@H]1C(=O)N2C(C(=O)[O-])=C(C[N+]3(C)CCCC3)CS[C@H]12)c1csc(N)n1 [Cefepime] , report its measured MIC.
4 µg/mL

---

- Test system: K. pneumoniae M150
- procedure summary: MIC by agar dilution (CLSI) against highly resistant ESBL strain
- Assay type: cell-based
- test conditions: Klebsiella pneumoniae, M150, K. pneumoniae M150; Tazobactam 0 mcg (antibiotic alone); read-out: MIC
Below is a list of entries, each paired with its recorded MIC value.

* CO/N=C(\C(=O)N[C@@H]1C(=O)N2C(C(=O)[O-])=C(C[N+]3(C)CCCC3)CS[C@H]12)c1csc(N)n1 [Cefepime] | > 64 µg/mL
* CCN1CCN(C(=O)N[C@@H](C(=O)N[C@@H]2C(=O)N3[C@@H]2SC(C)(C)[C@@H]3C(=O)O)c2ccccc2)C(=O)C1=O | > 128 µg/mL
* CC1(C)S[C@@H]2[C@H](NC(=O)[C@H](C(=O)O)c3ccsc3)C(=O)N2[C@H]1C(=O)O | > 128 µg/mL

For the next question, use this molecule.
Given the entry CC1(C)S[C@@H]2[C@H](NC(=O)[C@H](N)c3ccccc3)C(=O)N2[C@H]1C(=O)O , report its measured MIC.
> 128 µg/mL

---

- System: E. coli B123
- procedure summary: MIC by agar dilution (CLSI) against highly resistant ESBL strain
- Type: cell-based
- test conditions: Escherichia coli, B123, E. coli B123; with Tazobactam 4 mcg; read-out: MIC
Below is a list of entries, each paired with its recorded MIC value.

Example results:
* COCC1=C(C(=O)O)N2C(=O)[C@@H](NC(=O)/C(=N\OC)c3csc(N)n3)[C@H]2SC1 | > 64 µg/mL
* CO/N=C(\C(=O)N[C@@H]1C(=O)N2C(C(=O)O)=C(CSc3nc(=O)c(=O)[nH]n3C)CS[C@H]12)c1csc(N)n1 | > 64 µg/mL

For the next question, use this compound.
Tell me reported MIC for CC(C)(O/N=C(\C(=O)N[C@@H]1C(=O)N2C(C(=O)[O-])=C(C[n+]3ccccc3)CS[C@H]12)c1csc(N)n1)C(=O)O , tested with E. coli B123.
> 64 µg/mL
